Assign zone of inhibition at 150 µg/disc to each entry below.
# System: Diutina rugosa
# experiment_summary: Antifungal activity against Candida rugosa NCIM 3462 at 150 ug after 48 hrs by agar well diffusion method
# Format: functional
# assay_context: NCIM 3462, 48 h, read-out: DIZ
Numbers only, in mm.

Consider the reported zone of inhibition at 150 µg/disc for these compounds:
CC1(C)O[C@H]2O[C@@H]3COB(c4ccsc4)O[C@@H]3[C@H]2O1: 20
CC1(C)O[C@H]2O[C@@H]3COB(c4cccc([N+](=O)[O-])c4)O[C@@H]3[C@H]2O1: 20
CC1(C)O[C@H]2O[C@@H]3COB(c4ccc(F)cc4)O[C@@H]3[C@H]2O1: 14
C=Cc1ccc(B2OC[C@H]3O[C@@H]4OC(C)(C)O[C@@H]4[C@H]3O2)cc1: 0
CC1(C)O[C@H]2O[C@@H]3COB(c4ccc5ccccc5c4)O[C@@H]3[C@H]2O1: 16
CC1(C)O[C@H]2O[C@@H]3COB(c4ccccc4)O[C@@H]3[C@H]2O1: 0
CC1(C)O[C@H]2O[C@@H]3COB(c4cccs4)O[C@@H]3[C@H]2O1: 13
COc1ccc(B2OC[C@H]3O[C@@H]4OC(C)(C)O[C@@H]4[C@H]3O2)cc1: 10

Count: 2. Required value per item: zone of inhibition at 150 µg/disc.
1. Cc1ccc(B2OC[C@H]3O[C@@H]4OC(C)(C)O[C@@H]4[C@H]3O2)cc1
2. CC1(C)O[C@H]2O[C@@H]3COB(c4ccc(C=O)cc4)O[C@@H]3[C@H]2O1

Completion:
1: 6; 2: 17

====

# Tested on: Pseudomonas aeruginosa
# experiment_summary: Antibacterial activity against Pseudomonas aeruginosa MTCC 741 by broth microdilution method
# Assay type: functional
readout_kind: MIC (µg/mL)
Numbers only, in µg/mL.

Guide cases for MIC, answers given:
CC1(C)O[C@H]2O[C@@H]3COB(c4cccs4)O[C@@H]3[C@H]2O1: 75
COc1ccc(B2OC[C@H]3O[C@@H]4OC(C)(C)O[C@@H]4[C@H]3O2)cc1: 150
CN[C@@H]1[C@H](O[C@H]2[C@H](O[C@H]3[C@H](O)[C@@H](O)[C@H](N=C(N)N)[C@@H](O)[C@@H]3N=C(N)N)O[C@@H](C)[C@]2(O)C=O)O[C@@H](CO)[C@H](O)[C@H]1O [STREPTOMYCIN]: 1.56

Prompt: Looking for the measured MIC of `CC1(C)O[C@H]2O[C@@H]3COB(c4ccccc4)O[C@@H]3[C@H]2O1` , can you help?
Completion: 37.5

====

Give MIC for every item shown.
# System: Klebsiella pneumoniae
# experiment_summary: Antibacterial activity against Klebsiella pneumoniae MTCC 618 by broth microdilution method
# Assay type: functional
Answers are plain numbers, in µg/mL.

Consider the worked cases shown below.
CC1(C)O[C@H]2O[C@@H]3COB(c4cccs4)O[C@@H]3[C@H]2O1: 150
CC1(C)O[C@H]2O[C@@H]3COB(c4ccc(C=O)cc4)O[C@@H]3[C@H]2O1: 4.68
CC1(C)O[C@H]2O[C@@H]3COB(c4ccc5ccccc5c4)O[C@@H]3[C@H]2O1: 150
CN[C@@H]1[C@H](O[C@H]2[C@H](O[C@H]3[C@H](O)[C@@H](O)[C@H](N=C(N)N)[C@@H](O)[C@@H]3N=C(N)N)O[C@@H](C)[C@]2(O)C=O)O[C@@H](CO)[C@H](O)[C@H]1O: 3.12

Consider the following items and state reported MIC for each.
1. CC1(C)S[C@@H]2[C@H](NC(=O)Cc3ccccc3)C(=O)N2[C@H]1C(=O)O
2. CC1(C)O[C@H]2O[C@@H]3COB(c4ccc(F)cc4)O[C@@H]3[C@H]2O1
3. C=Cc1ccc(B2OC[C@H]3O[C@@H]4OC(C)(C)O[C@@H]4[C@H]3O2)cc1
4. COc1ccc(B2OC[C@H]3O[C@@H]4OC(C)(C)O[C@@H]4[C@H]3O2)cc1
5. CC1(C)O[C@H]2O[C@@H]3COB(c4ccccc4)O[C@@H]3[C@H]2O1

Completion:
1. 6.25
2. 37.5
3. 150
4. 75
5. 75

Below are some compounds; for each one, tell me its MIC.
1. Cc1ccc(B2OC[C@H]3O[C@@H]4OC(C)(C)O[C@@H]4[C@H]3O2)cc1
2. CC1(C)O[C@H]2O[C@@H]3COB(c4ccsc4)O[C@@H]3[C@H]2O1
3. CC1(C)O[C@H]2O[C@@H]3COB(c4cccc([N+](=O)[O-])c4)O[C@@H]3[C@H]2O1

Completion:
[150, 75, 4.68]

====

# Test system: Pseudomonas aeruginosa
# experiment_summary: Antibacterial activity against Pseudomonas aeruginosa MTCC 741 by broth microdilution method
# Format: functional
Give MIC for every item shown.
One number for each entry, in µg/mL.

C=Cc1ccc(B2OC[C@H]3O[C@@H]4OC(C)(C)O[C@@H]4[C@H]3O2)cc1: 37.5
Cc1ccc(B2OC[C@H]3O[C@@H]4OC(C)(C)O[C@@H]4[C@H]3O2)cc1: 150
CC1(C)O[C@H]2O[C@@H]3COB(c4ccc(F)cc4)O[C@@H]3[C@H]2O1: 75
CC1(C)O[C@H]2O[C@@H]3COB(c4ccc(C=O)cc4)O[C@@H]3[C@H]2O1: 37.5
CC1(C)S[C@@H]2[C@H](NC(=O)Cc3ccccc3)C(=O)N2[C@H]1C(=O)O: 12.5
CC1(C)O[C@H]2O[C@@H]3COB(c4cccc([N+](=O)[O-])c4)O[C@@H]3[C@H]2O1: 18.8
CC1(C)O[C@H]2O[C@@H]3COB(c4ccc5ccccc5c4)O[C@@H]3[C@H]2O1: 150

Prompt: What does the record list as MIC for `CC1(C)O[C@H]2O[C@@H]3COB(c4ccsc4)O[C@@H]3[C@H]2O1` ?
Completion: 18.8

====

Answer each item with its documented zone of inhibition at 100 µg/disc.
# Tested on: Saccharomyces cerevisiae
# experiment_summary: Antifungal activity against Saccharomyces cerevisiae MTCC 36 at 100 ug after 48 hrs by agar well diffusion method
# Type: functional
# assay_context: MTCC 36, 48 h, read-out: DIZ
Numbers only, in mm.

Some compounds with recorded zone of inhibition at 100 µg/disc:
CC1(C)O[C@H]2O[C@@H]3COB(c4ccccc4)O[C@@H]3[C@H]2O1: 0
C=Cc1ccc(B2OC[C@H]3O[C@@H]4OC(C)(C)O[C@@H]4[C@H]3O2)cc1: 6
Cc1ccc(B2OC[C@H]3O[C@@H]4OC(C)(C)O[C@@H]4[C@H]3O2)cc1: 0

Now look at this entry.
Prompt: For `CC1(C)O[C@H]2O[C@@H]3COB(c4cccc([N+](=O)[O-])c4)O[C@@H]3[C@H]2O1` , what is its reported zone of inhibition at 100 µg/disc?
Completion: 11

====

# Test system: Saccharomyces cerevisiae
# experiment_summary: Antifungal activity against Saccharomyces cerevisiae MTCC 36 at 100 ug after 48 hrs by agar well diffusion method
# Type: functional
# assay_context: MTCC 36, 48 h, read-out: DIZ
Where zone of inhibition at 100 µg/disc equals or exceeds 10 mm, the correct label is Fulfilled; where it does not, the label is Not fulfilled.

These recorded examples may help you get a feel for the data.
CC1(C)O[C@H]2O[C@@H]3COB(c4ccc(F)cc4)O[C@@H]3[C@H]2O1: Not fulfilled
CC1(C)O[C@H]2O[C@@H]3COB(c4ccc5ccccc5c4)O[C@@H]3[C@H]2O1: Not fulfilled
CC1(C)O[C@H]2O[C@@H]3COB(c4ccc(C=O)cc4)O[C@@H]3[C@H]2O1: Fulfilled
CC1(C)O[C@H]2O[C@@H]3COB(c4cccs4)O[C@@H]3[C@H]2O1: Fulfilled
COc1ccc(B2OC[C@H]3O[C@@H]4OC(C)(C)O[C@@H]4[C@H]3O2)cc1: Not fulfilled

Prompt: Is zone of inhibition at 100 µg/disc at least 10 mm? Consider `C[C@@H]1[C@H](O)[C@@H](C)/C=C/C=C/C=C/C=C/C=C/C=C/C=C/[C@H](O[C@@H]2O[C@H](C)[C@@H](O)[C@H](N)[C@@H]2O)C[C@@H]2O[C@](O)(C[C@@H](O)C[C@@H](O)[C@H](O)CC[C@@H](O)C[C@@H](O)CC(=O)O[C@H]1C)C[C@H](O)[C@H]2C(=O)O`
Completion: Fulfilled

Source of measurements: ChEMBL document CHEMBL1795341
